Measured MIC by item
Tested on: Staphylococcus aureus ATCC 43300 (MRSA)

{"Smi": "C[C@H](CCC(=O)NCCCNCCCCCCCCCCNCCCNC(=O)CC[C@@H](C)[C@H]1CC[C@H]2[C@@H]3[C@@H](O)C[C@@H]4C[C@H](O)CC[C@]4(C)[C@H]3CC[C@]12C)[C@H]1CC[C@H]2[C@@H]3[C@@H](O)C[C@@H]4C[C@H](O)CC[C@]4(C)[C@H]3CC[C@]12C.O=C(O)C(F)(F)F.O=C(O)C(F)(F)F", "MIC": "≤ 0.2 µM"}
{"Smi": "C[C@H](CCC(=O)NCCCNCCCCCCCCCCNCCCNC(=O)CC[C@@H](C)[C@H]1CC[C@H]2[C@@H]3C[C@H](O)[C@@H]4C[C@H](O)CC[C@]4(C)[C@H]3CC[C@]12C)[C@H]1CC[C@H]2[C@@H]3C[C@H](O)[C@@H]4C[C@H](O)CC[C@]4(C)[C@H]3CC[C@]12C.O=C(O)C(F)(F)F.O=C(O)C(F)(F)F", "MIC": "≤ 0.2 µM"}
{"Smi": "C[C@H](CCC(=O)NCCCNCCCCNCCCNC(=O)CC[C@@H](C)[C@H]1CC[C@H]2[C@@H]3[C@@H](O)C[C@@H]4C[C@H](O)CC[C@]4(C)[C@H]3CC[C@]12C)[C@H]1CC[C@H]2[C@@H]3[C@@H](O)C[C@@H]4C[C@H](O)CC[C@]4(C)[C@H]3CC[C@]12C.O=C(O)C(F)(F)F.O=C(O)C(F)(F)F", "MIC": "27 µM"}
